EXPERIMENTAL_SYSTEM: T1, PUF4 RNA-binding domain (Saccharomyces cerevisiae, UniProt P25339 537-888)
T1 sequence: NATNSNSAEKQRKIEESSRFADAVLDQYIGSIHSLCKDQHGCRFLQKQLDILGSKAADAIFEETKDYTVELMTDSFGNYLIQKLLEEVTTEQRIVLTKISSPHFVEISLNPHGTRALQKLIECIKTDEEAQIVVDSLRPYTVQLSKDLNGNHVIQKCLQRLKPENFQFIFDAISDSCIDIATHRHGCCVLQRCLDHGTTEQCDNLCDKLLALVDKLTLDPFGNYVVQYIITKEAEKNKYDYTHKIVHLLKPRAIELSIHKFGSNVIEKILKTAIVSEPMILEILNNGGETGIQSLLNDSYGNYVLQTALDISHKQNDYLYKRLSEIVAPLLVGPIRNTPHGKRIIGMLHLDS
PROCEDURE_SUMMARY: Mg; RNA-MaP; 20 mM Na-HEPES pH 7.4, 30 mM KOAc, 0.75 mM MgCl2, 0.1% Tween-20, 5% glycerol, 0.1 mg/mL BSA, 2 mM DTT; 25 C; 0.0125-409.6 nM protein
EXPERIMENTAL_CONTEXT: tags: N-His6-TEV cleaved; C-SNAP kept, Cy3B-labelled; label: tethered on chip by stalled RNA polymerase
Can you tell me Kd for the items I'm about to list?

[[record]]
binder = "ACAAACACACACUUAUUAUCACAAAC (ssRNA) [Id_ii_S3_P5E.4_K5.3_C5.2_[C-2A]_[T-1C]_H5.3_A5.1_F5.1_T5.2_[A12C]]"
endpoint_value = "> 2.3 µM"

[[record]]
binder = "Ic_S4_P3E.1_K3.1_C3.1_H3.1_A3.1_[A6C]_F3.1_[T7C]_[A8T]_T3.1 (ssRNA) RNA: UUUGACAACUGAUCGUUCUUUCUUGUAUCCUUUCUUUCUCGAUCAGUUGUCUUU"
endpoint_value = "0.0276 µM"


With those in mind, consider the next binder.
In: Query: Kd; subject: ACAAACUGAACUAUUAACAAAC (ssRNA) [Ib_S3_P5E.1_K5.1_C5.1_H5.1_[T3A]_A5.1_[T5C]_F5.1_T5.1]
Out: > 2.3 µM
